Test system: Vero
Experiment: Inhibitory concentration for cytotoxic activity against Vero cell line
Format: functional, cell-based
Conditions: Chlorocebus sabaeus
Known IC50 of a selection of compounds

See these solved cases before continuing.
INSERT INTO assay_data (smi, measurement_name, val) VALUES
  ('COc1cc(/C=C/C(=O)c2cccc(NC(=O)c3ccc(Cl)c(Cl)c3)c2)ccc1O', 'IC50', '> 50 µg/mL'),
  ('COc1cc(/C=C/C(=O)c2cccc(NC(=O)c3cc(Cl)cc(Cl)c3)c2)ccc1O', 'IC50', '> 50 µg/mL');

Turning now to a further compound:
# lookup: IC50 of CCOC(=O)C(=O)Nc1cccc(C(=O)/C=C/c2ccc(O)c(OC)c2)c1
> 50 µg/mL
